EXPERIMENTAL_SYSTEM: Muscarinic acetylcholine receptor M1 (Homo sapiens, UniProt P11229)
Sequence (P11229 whole entry): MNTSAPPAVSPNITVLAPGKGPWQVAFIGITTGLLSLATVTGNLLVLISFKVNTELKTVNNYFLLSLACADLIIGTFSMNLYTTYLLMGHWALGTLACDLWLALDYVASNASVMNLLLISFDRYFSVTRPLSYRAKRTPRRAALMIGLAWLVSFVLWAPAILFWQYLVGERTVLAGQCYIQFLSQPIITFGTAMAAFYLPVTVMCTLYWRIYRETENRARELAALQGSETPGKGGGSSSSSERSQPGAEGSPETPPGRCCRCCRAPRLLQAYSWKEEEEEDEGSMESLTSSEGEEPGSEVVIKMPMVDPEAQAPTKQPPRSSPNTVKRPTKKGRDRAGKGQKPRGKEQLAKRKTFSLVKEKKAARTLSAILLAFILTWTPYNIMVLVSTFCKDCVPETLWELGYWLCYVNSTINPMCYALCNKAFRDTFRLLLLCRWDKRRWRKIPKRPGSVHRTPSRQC
PROPERTY: pKi
To interpret pKi, take it as minus log10 of a concentration measured in moles per litre.

// pKi lookup, key: C=C(c1ccc(S(=O)(=O)c2ccc(OC)cc2)cc1)C1CCN(C2CCN(C(=O)OCC)CC2)CC1 8.19

---

EXPERIMENTAL_SYSTEM: Muscarinic acetylcholine receptors; M1 & M2 (Homo sapiens) (UniProt P11229+P08172)
ASSAY_EXPLANATION: Binding affinity towards M1 receptor compared to M2 receptor.
Type: protein assay
PROPERTY: Selectivity
Give the value as a plain number.

// Selectivity lookup, key: C=C(c1ccc(S(=O)(=O)c2ccc(OC)cc2)cc1)C1CCN(C2CCN(S(=O)(=O)CC)CC2)CC1 162

// Selectivity lookup, key: C=C(c1ccc(S(=O)(=O)c2ccc(OC)cc2)cc1)C1CCN(C2CCN(C(=O)CC)CC2)CC1 16

// Selectivity lookup, key: C=C(c1ccc(S(=O)(=O)c2ccc(OC)cc2)cc1)C1CCN(C2CCN(S(=O)(=O)c3ccccc3)CC2)CC1 104

// Selectivity lookup, key: C=C(c1ccc(S(=O)(=O)c2ccc(OC)cc2)cc1)C1CCN(C2CCN(C(=O)C3CC3)CC2)CC1 262

---

Please provide measured Selectivity for the entries that follow.
EXPERIMENTAL_SYSTEM: Muscarinic acetylcholine receptors; M2 & M3 (Homo sapiens) (UniProt P20309+P08172)
ASSAY_EXPLANATION: Binding affinity towards M3 receptor compared to M2 receptor.
Type: protein assay
Give the value as a plain number.

Give recorded Selectivity with Muscarinic acetylcholine receptors; M2 & M3 (Homo sapiens) (UniProt P20309+P08172) for the following compound: C=C(c1ccc(S(=O)(=O)c2ccc(OC)cc2)cc1)C1CCN(C2CCN(C(=O)CC)CC2)CC1 13

Give recorded Selectivity with Muscarinic acetylcholine receptors; M2 & M3 (Homo sapiens) (UniProt P20309+P08172) for the following compound: C=C(c1ccc(S(=O)(=O)c2ccc(OC)cc2)cc1)C1CCN(C2CCN(S(=O)(=O)CCC)CC2)CC1 35

Give recorded Selectivity with Muscarinic acetylcholine receptors; M2 & M3 (Homo sapiens) (UniProt P20309+P08172) for the following compound: C=C(c1ccc(S(=O)(=O)c2ccc(OC)cc2)cc1)C1CCN(C2CCN(C(=O)C3CC3)CC2)CC1 260

Give recorded Selectivity with Muscarinic acetylcholine receptors; M2 & M3 (Homo sapiens) (UniProt P20309+P08172) for the following compound: C=C(c1ccc(S(=O)(=O)c2ccc(OC)cc2)cc1)C1CCN(C2CCN(C(=O)OCCC)CC2)CC1 40

Give recorded Selectivity with Muscarinic acetylcholine receptors; M2 & M3 (Homo sapiens) (UniProt P20309+P08172) for the following compound: C=C(c1ccc(S(=O)(=O)c2ccc(OC)cc2)cc1)C1CCN(C2CCN(S(=O)(=O)C(C)C)CC2)CC1 440

Give recorded Selectivity with Muscarinic acetylcholine receptors; M2 & M3 (Homo sapiens) (UniProt P20309+P08172) for the following compound: C=C(c1ccc(S(=O)(=O)c2ccc(OC)cc2)cc1)C1CCN(C2CCCCC2)CC1 3

Give recorded Selectivity with Muscarinic acetylcholine receptors; M2 & M3 (Homo sapiens) (UniProt P20309+P08172) for the following compound: C=C(c1ccc(S(=O)(=O)c2ccc(OC)cc2)cc1)C1CCN(C2CCN(S(=O)(=O)Cc3ccccc3)CC2)CC1 54

Give recorded Selectivity with Muscarinic acetylcholine receptors; M2 & M3 (Homo sapiens) (UniProt P20309+P08172) for the following compound: C=C(c1ccc(S(=O)(=O)c2ccc(OC)cc2)cc1)C1CCN(C2CCN(C(=O)CCC)CC2)CC1 324

---

Please provide measured Selectivity for the entries that follow.
EXPERIMENTAL_SYSTEM: Muscarinic acetylcholine receptors; M1 & M2 (Homo sapiens) (UniProt P11229+P08172)
ASSAY_EXPLANATION: Binding affinity towards M1 receptor compared to M2 receptor.
Assay type: protein assay
Give the value as a plain number.

Give recorded Selectivity with Muscarinic acetylcholine receptors; M1 & M2 (Homo sapiens) (UniProt P11229+P08172) for the following compound: C=C(c1ccc(S(=O)(=O)c2ccc(OC)cc2)cc1)C1CCN(C2CCN(S(=O)(=O)C(C)C)CC2)CC1 198

Give recorded Selectivity with Muscarinic acetylcholine receptors; M1 & M2 (Homo sapiens) (UniProt P11229+P08172) for the following compound: C=C(c1ccc(S(=O)(=O)c2ccc(OC)cc2)cc1)C1CCN(C2CCN(S(=O)(=O)Cc3ccccc3)CC2)CC1 23

Give recorded Selectivity with Muscarinic acetylcholine receptors; M1 & M2 (Homo sapiens) (UniProt P11229+P08172) for the following compound: C=C(c1ccc(S(=O)(=O)c2ccc(OC)cc2)cc1)C1CCN(C2CCN(C(=O)OCc3ccccc3)CC2)CC1 24

Give recorded Selectivity with Muscarinic acetylcholine receptors; M1 & M2 (Homo sapiens) (UniProt P11229+P08172) for the following compound: C=C(c1ccc(S(=O)(=O)c2ccc(OC)cc2)cc1)C1CCN(C2CCN(C(=O)Cc3ccccc3)CC2)CC1 32

Give recorded Selectivity with Muscarinic acetylcholine receptors; M1 & M2 (Homo sapiens) (UniProt P11229+P08172) for the following compound: C=C(c1ccc(S(=O)(=O)c2ccc(OC)cc2)cc1)C1CCN(C2CCCCC2)CC1 16

Give recorded Selectivity with Muscarinic acetylcholine receptors; M1 & M2 (Homo sapiens) (UniProt P11229+P08172) for the following compound: C=C(c1ccc(S(=O)(=O)c2ccc(OC)cc2)cc1)C1CCN(C2CCN(S(=O)(=O)CCCC)CC2)CC1 150

Give recorded Selectivity with Muscarinic acetylcholine receptors; M1 & M2 (Homo sapiens) (UniProt P11229+P08172) for the following compound: C=C(c1ccc(S(=O)(=O)c2ccc(OC)cc2)cc1)C1CCN(C2CCN(C(=O)OC)CC2)CC1 61

Give recorded Selectivity with Muscarinic acetylcholine receptors; M1 & M2 (Homo sapiens) (UniProt P11229+P08172) for the following compound: C=C(c1ccc(S(=O)(=O)c2ccc(OC)cc2)cc1)C1CCN(C2CCN(S(=O)(=O)CCC)CC2)CC1 89

Give recorded Selectivity with Muscarinic acetylcholine receptors; M1 & M2 (Homo sapiens) (UniProt P11229+P08172) for the following compound: C=C(c1ccc(S(=O)(=O)c2ccc(OC)cc2)cc1)C1CCN(C2CCN(C(=O)OCC(C)C)CC2)CC1 35

Give recorded Selectivity with Muscarinic acetylcholine receptors; M1 & M2 (Homo sapiens) (UniProt P11229+P08172) for the following compound: C=C(c1ccc(S(=O)(=O)c2ccc(OC)cc2)cc1)C1CCN(C2CCNCC2)CC1 8

Give recorded Selectivity with Muscarinic acetylcholine receptors; M1 & M2 (Homo sapiens) (UniProt P11229+P08172) for the following compound: C=C(c1ccc(S(=O)(=O)c2ccc(OC)cc2)cc1)C1CCN(C2CCN(C(=O)OCC)CC2)CC1 59

Give recorded Selectivity with Muscarinic acetylcholine receptors; M1 & M2 (Homo sapiens) (UniProt P11229+P08172) for the following compound: C=C(c1ccc(S(=O)(=O)c2ccc(OC)cc2)cc1)C1CCN(C2CCN(C(=O)OCCCC)CC2)CC1 28

Give recorded Selectivity with Muscarinic acetylcholine receptors; M1 & M2 (Homo sapiens) (UniProt P11229+P08172) for the following compound: C=C(c1ccc(S(=O)(=O)c2ccc(OC)cc2)cc1)C1CCN(C2CCN(C(=O)C(C)C)CC2)CC1 53

Give recorded Selectivity with Muscarinic acetylcholine receptors; M1 & M2 (Homo sapiens) (UniProt P11229+P08172) for the following compound: C=C(c1ccc(S(=O)(=O)c2ccc(OC)cc2)cc1)C1CCN(C2CCN(C(=O)CCC)CC2)CC1 111

Give recorded Selectivity with Muscarinic acetylcholine receptors; M1 & M2 (Homo sapiens) (UniProt P11229+P08172) for the following compound: C=C(c1ccc(S(=O)(=O)c2ccc(OC)cc2)cc1)C1CCN(C2CCN(C(=O)OC(C)C)CC2)CC1 36

Give recorded Selectivity with Muscarinic acetylcholine receptors; M1 & M2 (Homo sapiens) (UniProt P11229+P08172) for the following compound: C=C(c1ccc(S(=O)(=O)c2ccc(OC)cc2)cc1)C1CCN(C2CCN(C(=O)OCCC)CC2)CC1 69
